Consider the following compounds; for each one, report its LDH release cytotoxicity.
Test system: HepaRG
METHOD_DESCRIPTION: LDH release cytotoxicity, % of total lysis control; higher = more cytotoxic
EXPERIMENTAL_PARAMETERS: 100 µM; 48 h
Answers are plain numbers, in %.

Solved cases below.
// sample CC(C)(O)c1coc(S(=O)(=O)NC(=O)Nc2c3c(cc4c2CCC4)CCC3)c1 , its LDH release cytotoxicity was 1.47

// sample O=C(O)CCN(C1(C(=O)NO)CCCC1)S(=O)(=O)c1ccc(Oc2ccc(F)cc2)cc1 , its LDH release cytotoxicity was 1.19

// sample NCCOCCOCCN [2,2'-[Ethane-1,2-diylbis(oxy)]diethanamine] , its LDH release cytotoxicity was 4

// sample Cc1nc(-c2ccc3c(c2)CCN(CCC2CCC(NC(=O)C=Cc4ccc(F)cc4)CC2)CC3)no1 (stereo not drawn) , its LDH release cytotoxicity was -0.791

// sample CCc1cccc(CC)c1N(COC)C(=O)CCl [Alachlor] , its LDH release cytotoxicity was -0.425

// sample COP(=S)(OC)SCn1nnc2ccccc2c1=O [Azinphos-methyl] , its LDH release cytotoxicity was 0.533

// sample Cc1cccc(Nc2cc(Cl)nc(SCC(=O)O)n2)c1C [Pirinixic acid] , its LDH release cytotoxicity was 2.17

// sample COC=C(C(=O)OC)c1ccccc1COc1cccc(C(F)(F)F)n1 [Picoxystrobin] , its LDH release cytotoxicity was 60

Each of the following entries comes with a recorded value; kindly state LDH release cytotoxicity for each.
1. O=P(OCCCl)(OCCCl)OCCCl [Tris(2-chloroethyl) phosphate]
2. COCC(C)OCC(C)O (stereo not drawn) [Dipropylene glycol monomethyl ether]

1. 0.367
2. 0.163

Each of the following entries comes with a recorded value; kindly state LDH release cytotoxicity for each.
1. CCCCOCN(C(=O)CCl)c1c(CC)cccc1CC [Butachlor]
2. CSc1ccc(Oc2ccc(S(N)(=O)=O)cc2CN(C)C)cc1C
3. O=C(CCCN1CCC(O)(c2ccc(Cl)cc2)CC1)c1ccc(F)cc1 [Haloperidol]
4. COC(=O)c1ccc(C(=O)OC)cc1 [Dimethyl terephthalate]
5. CCOC(=O)c1ccc(O)cc1 [Ethylparaben]
6. Cc1cccc([N+](=O)[O-])c1C [1,2-Dimethyl-3-nitrobenzene]
7. COCCOCCOC [Diethylene glycol dimethyl ether]
8. COc1cc(OC)nc(NC(=O)NS(=O)(=O)c2ncccc2OCC(F)(F)F)n1 [Trifloxysulfuron-sodium]

[2.96, 13.7, 62.2, 2.87, 0.163, 1.87, 0.75, 0.885]

Value source: the supplement of paper PMC7840683
